- TEST DETAILS: Stability in rat plasma assessed as remaining compound at 100 ug/ml incubated for 1.5 hrs by LC-MS analysis
- Type: ADME, cell-free
- TEST PARAMETERS: read-out: Stability
REPORTED PROPERTY: remaining at 1.5 h, 100 ug/ml

> print(dat)
                                        smi              reported.property  observed.measurement
1  Cl.Cn1ncc(Cl)c1-c1csc(C(=O)N[C@@H]2CNCC[C@H]2c2cccc(F)c2)c1  remaining at 1.5 h, 100 ug/ml                 > 99%

====

- TEST DETAILS: AUC (0 to t) in Sprague-Dawley rat at 2 mg/kg, iv measured up 48 hrs by LC-MS/MS analysis
- Format: ADME, organism-based
- TEST PARAMETERS: in vivo
REPORTED PROPERTY: AUC(0-t) at 48 h (ng·h/mL)

> print(dat)
                                        smi  observed.measurement
1  Cl.Cn1ncc(Cl)c1-c1csc(C(=O)N[C@@H]2CNCC[C@H]2c2cccc(F)c2)c1                  1480

====

System: RAC-alpha serine/threonine-protein kinase (Homo sapiens) | Read-out: pIC50
Sequence (P31749 whole entry): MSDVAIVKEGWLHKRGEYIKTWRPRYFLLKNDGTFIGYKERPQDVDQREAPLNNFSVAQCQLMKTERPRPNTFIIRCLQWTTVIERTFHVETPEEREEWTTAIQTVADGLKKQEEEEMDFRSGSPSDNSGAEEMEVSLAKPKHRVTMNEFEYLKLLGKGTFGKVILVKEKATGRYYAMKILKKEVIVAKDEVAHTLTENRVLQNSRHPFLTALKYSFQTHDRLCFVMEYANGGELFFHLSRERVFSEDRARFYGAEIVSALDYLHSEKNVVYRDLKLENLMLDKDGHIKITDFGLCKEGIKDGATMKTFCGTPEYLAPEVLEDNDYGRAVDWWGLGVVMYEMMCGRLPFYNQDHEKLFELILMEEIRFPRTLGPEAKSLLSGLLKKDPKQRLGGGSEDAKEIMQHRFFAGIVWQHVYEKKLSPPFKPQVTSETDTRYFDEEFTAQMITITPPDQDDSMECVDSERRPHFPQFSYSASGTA
pIC50: −log10 of the molar value.
REPORTED PROPERTY: pIC50

> print(dat)
                                        smi  observed.measurement
1  CCc1cnn(C)c1-c1ccc(C(=O)N[C@@H]2CNCC[C@H]2c2cccc(F)c2)s1                  7.31
2  C=Cc1cnn(C)c1-c1ccc(C(=O)N[C@@H]2CNCC[C@H]2c2cccc(F)c2)s1                  7.33
3  Cn1ncc(Br)c1-c1ccc(C(=O)N[C@@H]2CNCC[C@H]2c2cccc(F)c2)s1                  8.26
4  Cn1ncc(Cl)c1-c1csc(C(=O)N[C@@H]2CNCC[C@H]2c2ccc(Cl)c(C(F)(F)F)c2)c1                  7.45
5  Cn1ncc(Cl)c1-c1ccc(C(=O)N[C@@H]2CNCC[C@H]2c2ccc(Cl)c(C(F)(F)F)c2)s1                  7.19
6  Cn1ncc(-c2ccncc2)c1-c1ccc(C(=O)N[C@@H]2CNCC[C@H]2c2cccc(F)c2)s1                  7.00
7  Cn1ncc(Cl)c1-c1ccc(C(=O)N[C@@H]2CNCC[C@H]2c2ccc(Cl)cc2)s1                  8.74
8  Cl.Cn1ncc(Cl)c1-c1csc(C(=O)N[C@@H]2CNCC[C@H]2c2cccc(F)c2)c1                  8.90

====

- TEST DETAILS: Stability in dog liver microsomes assessed as remaining compound at 100 ug/ml incubated for 1.5 hrs by LC-MS analysis
- Format: ADME, Canis lupus familiaris, Microsome
- TEST PARAMETERS: read-out: Stability
REPORTED PROPERTY: remaining at 1.5 h, 100 ug/ml (%)

> print(dat)
                                        smi  observed.measurement
1  Cl.Cn1ncc(Cl)c1-c1csc(C(=O)N[C@@H]2CNCC[C@H]2c2cccc(F)c2)c1                  81.3

====

- TEST DETAILS: Half life in Sprague-Dawley rat at 2 mg/kg, iv measured up 48 hrs by LC-MS/MS analysis
- Format: ADME, organism-based
- TEST PARAMETERS: in vivo
REPORTED PROPERTY: half-life

> print(dat)
                                        smi  reported.property  observed.measurement
1  Cl.Cn1ncc(Cl)c1-c1csc(C(=O)N[C@@H]2CNCC[C@H]2c2cccc(F)c2)c1          half-life                3.52 h

====

- TEST DETAILS: AUC (0 to infinity) in Sprague-Dawley rat at 10 mg/kg, po measured up 48 hrs by LC-MS/MS analysis
- Format: ADME, organism-based
- Design: dose 10 mg/kg, time infinity, route oral
- TEST PARAMETERS: in vivo
REPORTED PROPERTY: AUC(0-inf) (ng·h/mL)

> print(dat)
                                        smi  reported.property  observed.measurement
1  Cl.Cn1ncc(Cl)c1-c1csc(C(=O)N[C@@H]2CNCC[C@H]2c2cccc(F)c2)c1         AUC(0-inf)                  3940

====

- Test system: HCT-116
- TEST DETAILS: Cytotoxicity against human HCT116 cells assessed as reduction in cell viability incubated for 72 hrs by SRB assay
- Assay type: functional, cell-based
- TEST PARAMETERS: HCT-116, 72 h
REPORTED PROPERTY: IC50 (µM)

> print(dat)
                                        smi  observed.measurement
1  Cn1ncc(Cl)c1-c1cc(C(=O)N[C@H](CN)Cc2ccc(F)c(F)c2)oc1Cl                  1.75
2  Cn1ncc(Cl)c1-c1csc(C(=O)N[C@@H]2CNCC[C@H]2c2ccc(Cl)cc2)c1                  1.21
3  Cn1ncc(-c2ccccc2)c1-c1ccc(C(=O)N[C@@H]2CNCC[C@H]2c2cccc(F)c2)s1                  4.42

====

- TEST DETAILS: Stability in human plasma assessed as remaining compound at 100 ug/ml incubated for 1.5 hrs by LC-MS analysis
- Type: ADME, cell-free
- TEST PARAMETERS: read-out: Stability
REPORTED PROPERTY: remaining at 1.5 h, 100 ug/ml

> print(dat)
                                        smi  observed.measurement
1  Cl.Cn1ncc(Cl)c1-c1csc(C(=O)N[C@@H]2CNCC[C@H]2c2cccc(F)c2)c1                 > 99%

====

- TEST DETAILS: Cmax in Sprague-Dawley rat at 10 mg/kg, po measured up 48 hrs by LC-MS/MS analysis
- Format: ADME, organism-based
- Design: dose 10 mg/kg, route oral
- TEST PARAMETERS: in vivo
REPORTED PROPERTY: Cmax (ng/mL)

> print(dat)
                                        smi  unit.string  observed.measurement
1  Cl.Cn1ncc(Cl)c1-c1csc(C(=O)N[C@@H]2CNCC[C@H]2c2cccc(F)c2)c1        ng/mL                   423

====

- TEST DETAILS: Stability in rat liver microsomes assessed as remaining compound at 100 ug/ml incubated for 1.5 hrs by LC-MS analysis
- Type: ADME, Microsome
- TEST PARAMETERS: read-out: Stability
REPORTED PROPERTY: remaining at 1.5 h, 100 ug/ml (%)

> print(dat)
                                        smi  unit.string  observed.measurement
1  Cl.Cn1ncc(Cl)c1-c1csc(C(=O)N[C@@H]2CNCC[C@H]2c2cccc(F)c2)c1            %                  63.7

====

- TEST DETAILS: Stability in mouse liver microsomes assessed as remaining compound at 100 ug/ml incubated for 1.5 hrs by LC-MS analysis
- Format: ADME, Microsome
- TEST PARAMETERS: read-out: Stability
REPORTED PROPERTY: remaining at 1.5 h, 100 ug/ml (%)

> print(dat)
                                        smi  unit.string  observed.measurement
1  Cl.Cn1ncc(Cl)c1-c1csc(C(=O)N[C@@H]2CNCC[C@H]2c2cccc(F)c2)c1            %                  82.7

====

- TEST DETAILS: Half life in Sprague-Dawley rat at 10 mg/kg, po measured up 48 hrs by LC-MS/MS analysis
- Assay type: ADME, organism-based
- TEST PARAMETERS: in vivo
REPORTED PROPERTY: half-life (h)

> print(dat)
                                        smi  reported.property  observed.measurement
1  Cl.Cn1ncc(Cl)c1-c1csc(C(=O)N[C@@H]2CNCC[C@H]2c2cccc(F)c2)c1          half-life                  4.74

====

Reported IC50 values are given for each entry in this list.
- Test system: HCT-116
- TEST DETAILS: Cytotoxicity against human HCT116 cells assessed as reduction in cell viability incubated for 72 hrs by SRB assay
- Assay type: functional, cell-based
- TEST PARAMETERS: HCT-116, 72 h
REPORTED PROPERTY: IC50 (nM)

> print(dat)
                                        smi  observed.measurement
1  Cn1nccc1-c1ccc(C(=O)N[C@@H]2CNCC[C@H]2c2cccc(F)c2)s1                  1370
2  Cn1nccc1-c1ccc(C(=O)N[C@@H]2CNCC[C@H]2c2ccc(Cl)cc2)s1                  8870
3  Cc1cnn(C)c1-c1ccc(C(=O)N[C@@H]2CNCC[C@H]2c2cccc(F)c2)s1                  1780
4  C=Cc1cnn(C)c1-c1ccc(C(=O)N[C@@H]2CNCC[C@H]2c2cccc(F)c2)s1                  6850
5  Cn1ncc(Cl)c1-c1ccc(C(=O)N[C@@H]2CNCC[C@H]2c2ccc(Cl)c(C(F)(F)F)c2)s1                  1410
